- test summary: Tmax in Sprague-Dawley rat at 5 mg/kg, po
- Assay type: ADME, organism-based
- Design: dose 5 mg/kg, route oral
- experimental conditions: in vivo
reported endpoint: Tmax (h)
Return type: number; implicit unit h.

compound	uom	endpoint value
C[C@H]1CN(Cc2ccc(CC(=O)N3CCC(Nc4cccc(C#N)c4)CC3)cc2)CCN1	h	4

Q) Field request: Tmax | item: C[C@H]1CN(Cc2ccc(CC(=O)N3CCC(Nc4cccc(F)c4)CC3)cc2)CCN1 [CAMICINAL]
A) 2

----------
- assayed system: UniProt:O43193
- Sequence (O43193 whole entry): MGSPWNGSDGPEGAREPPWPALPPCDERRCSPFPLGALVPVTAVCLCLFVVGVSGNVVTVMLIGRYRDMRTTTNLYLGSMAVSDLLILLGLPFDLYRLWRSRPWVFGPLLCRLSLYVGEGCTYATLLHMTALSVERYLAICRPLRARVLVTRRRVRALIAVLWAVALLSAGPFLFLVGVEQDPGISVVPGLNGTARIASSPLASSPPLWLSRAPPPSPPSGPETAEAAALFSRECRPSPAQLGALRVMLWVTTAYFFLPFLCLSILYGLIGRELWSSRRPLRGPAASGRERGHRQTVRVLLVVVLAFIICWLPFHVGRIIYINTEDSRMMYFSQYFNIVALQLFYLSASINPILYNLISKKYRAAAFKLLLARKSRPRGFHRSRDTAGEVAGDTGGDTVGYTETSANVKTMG
- test summary: Agonist activity at human recombinant motilin receptor expressed in CHO cells assessed as increase in intracellular calcium by FLIPR assay
reported endpoint: pEC50
FYI, pEC50 means -log10 of a concentration in mol per litre.

Example entries begin here.
compound	assayed system	endpoint value
C[C@H]1CN(Cc2ccc(CCC(=O)N3CCC(Nc4cccc(F)c4)CC3)cc2)CCN1	UniProt:O43193	7.60
C[C@H]1CN(Cc2ccc(CC(=O)N3CCC(Nc4cccc(C#N)c4)CC3)cc2)CCN1	UniProt:O43193	8.40
C[C@@H]1CN(Cc2ccc(-c3cccnc3C(=O)N3CCC(Nc4ccc(F)cc4)CC3)cc2)C[C@H](C)N1	UniProt:O43193	8.40
C[C@@H]1CN(Cc2ccc(CC(=O)N3CCC(Nc4ccc(F)cc4)CC3)cc2)C[C@H](C)N1	UniProt:O43193	7.40
C[C@H]1CN(Cc2ccc(CC(=O)N3CCC(Nc4ccc(F)cc4)CC3)cc2)CCN1	UniProt:O43193	8.00

Q) Field request: pEC50 | item: `C[C@@H]1CN(Cc2ccc(CCC(=O)N3CCC(Nc4ccc(F)cc4)CC3)cc2)C[C@H](C)N1`
A) 7.30

Q) Field request: pEC50 | item: `C[C@@H]1CN(Cc2ccc(C(C)(C)C(=O)N3CCC(Nc4ccc(F)cc4)CC3)cc2)C[C@H](C)N1`
A) 7.50

Q) Field request: pEC50 | item: C[C@H]1CN(Cc2ccc(CC(=O)N3CCC(Nc4cccc(F)c4)CC3)cc2)CCN1 [CAMICINAL]
A) 7.90
